Biological target: T1, orthogonal hCD122 receptor (hoRb), hCD122 with H133D and Y134F (human, UniProt P14784 27-550); note: reference of the scale not given here
T1 sequence: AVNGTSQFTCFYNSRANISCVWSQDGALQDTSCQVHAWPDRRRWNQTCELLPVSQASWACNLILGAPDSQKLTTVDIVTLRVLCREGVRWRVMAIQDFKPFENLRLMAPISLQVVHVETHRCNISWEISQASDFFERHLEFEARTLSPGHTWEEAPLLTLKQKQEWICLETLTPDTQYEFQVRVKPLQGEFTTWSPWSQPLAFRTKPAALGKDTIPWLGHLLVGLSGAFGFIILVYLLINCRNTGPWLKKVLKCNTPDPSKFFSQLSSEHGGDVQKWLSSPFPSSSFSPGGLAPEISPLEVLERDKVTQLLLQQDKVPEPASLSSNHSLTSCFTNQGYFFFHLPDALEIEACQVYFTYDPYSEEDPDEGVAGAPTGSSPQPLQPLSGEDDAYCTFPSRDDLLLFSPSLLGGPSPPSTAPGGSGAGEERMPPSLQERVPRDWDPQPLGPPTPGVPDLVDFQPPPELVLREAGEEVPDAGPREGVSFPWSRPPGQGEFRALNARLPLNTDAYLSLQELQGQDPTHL
Test: cell-based or functional assay
outcome measure: Relative Proliferation Fold Change NKL 1:10 (fold)

Record excerpt, results attached:
binder	recorded number
SQVLVA (ligand) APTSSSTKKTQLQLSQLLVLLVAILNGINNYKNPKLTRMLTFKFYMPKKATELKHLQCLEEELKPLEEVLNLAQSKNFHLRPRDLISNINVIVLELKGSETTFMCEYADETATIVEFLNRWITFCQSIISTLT	0.62
G27K, SQVLKA (ligand) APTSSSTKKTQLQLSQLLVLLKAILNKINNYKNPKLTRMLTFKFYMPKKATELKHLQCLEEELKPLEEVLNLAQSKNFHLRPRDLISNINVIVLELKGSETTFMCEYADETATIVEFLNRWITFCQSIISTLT	1.94
Q126M, SQVLKA (ligand) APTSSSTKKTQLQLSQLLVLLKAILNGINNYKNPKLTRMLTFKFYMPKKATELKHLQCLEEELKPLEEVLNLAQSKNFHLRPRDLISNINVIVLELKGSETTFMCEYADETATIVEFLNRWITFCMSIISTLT	1.29
F42K, SQVLKA (ligand) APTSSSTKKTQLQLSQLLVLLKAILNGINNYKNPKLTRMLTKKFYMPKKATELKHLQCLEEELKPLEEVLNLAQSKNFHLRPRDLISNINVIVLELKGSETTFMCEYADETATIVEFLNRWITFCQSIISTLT	0.6
SQVLKY (ligand) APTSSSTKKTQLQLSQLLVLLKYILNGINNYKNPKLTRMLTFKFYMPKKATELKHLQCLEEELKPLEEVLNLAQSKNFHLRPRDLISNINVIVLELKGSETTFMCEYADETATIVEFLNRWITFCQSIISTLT	2.64

(P) Q126R, SQVLKA (ligand) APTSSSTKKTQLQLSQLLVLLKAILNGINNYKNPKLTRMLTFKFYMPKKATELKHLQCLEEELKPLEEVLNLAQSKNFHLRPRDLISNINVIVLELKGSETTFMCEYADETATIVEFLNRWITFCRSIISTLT
(Q) SQVSKA (ligand) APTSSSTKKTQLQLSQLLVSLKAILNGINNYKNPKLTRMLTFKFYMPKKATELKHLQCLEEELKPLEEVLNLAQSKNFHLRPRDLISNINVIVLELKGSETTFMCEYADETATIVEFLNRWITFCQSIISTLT
I need your help: which of the pair P , Q has higher Relative Proliferation Fold Change NKL 1:10? Answer format: the label of the selected item. Q
(Q: 1.73 fold, P: 0.75 fold)
